Quick list: IC50 per entry.
Target: IL-23R (Homo sapiens, UniProt Q5VWK5)
Sequence (Q5VWK5 24-629): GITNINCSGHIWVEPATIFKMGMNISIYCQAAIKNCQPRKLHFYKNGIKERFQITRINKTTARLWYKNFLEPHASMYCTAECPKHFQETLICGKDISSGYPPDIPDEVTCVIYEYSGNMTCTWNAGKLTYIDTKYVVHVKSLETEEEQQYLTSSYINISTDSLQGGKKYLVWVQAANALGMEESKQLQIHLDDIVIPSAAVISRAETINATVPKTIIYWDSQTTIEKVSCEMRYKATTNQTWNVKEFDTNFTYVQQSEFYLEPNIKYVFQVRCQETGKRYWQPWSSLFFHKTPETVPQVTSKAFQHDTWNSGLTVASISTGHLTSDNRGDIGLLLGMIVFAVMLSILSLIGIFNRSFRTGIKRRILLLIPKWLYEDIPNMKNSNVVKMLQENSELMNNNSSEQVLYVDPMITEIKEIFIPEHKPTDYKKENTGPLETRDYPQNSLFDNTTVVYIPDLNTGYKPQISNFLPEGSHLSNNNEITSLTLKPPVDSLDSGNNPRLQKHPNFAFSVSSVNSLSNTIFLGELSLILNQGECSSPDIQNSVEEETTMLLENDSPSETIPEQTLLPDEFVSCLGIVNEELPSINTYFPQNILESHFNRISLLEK
Test: DB cells IL23R pSTAT3 cell assay (pStat3 HTRF)
Format: cell-based
Conditions: Table E3; DB cells, IL-23 0.5 nM, 30 minutes at 37° C.; read-out: pStat3 HTRF (IC50)
Numbered stars: 1 amine (or outer) side, 2 acyl side, 3 side chain; on linkers, the order of the positions; unused ones are H or OH. Bridge positions count the residues as written; N and C are the ends. Square brackets hold non-standard residues; d marks the D form. Peptide text beside a SMILES is read from it. Trp(7-Me) = Cc1cccc2c(C[C@H](N)C(=O)O)c[nH]c12; Abu(4-yl) = O=C([C@H](CC[*:3])N[*:1])[*:2]; 2Nal = N[C@@H](Cc1ccc2ccccc2c1)C(=O)O; AEF = NCCOc1ccc(C[C@H](N)C(=O)O)cc1; Cit = NC(=O)NCCC[C@H](N)C(=O)O; Pen = CC(C)(S)[C@H](N)C(=O)O; αMeK = C[C@](N)(CCCCN)C(=O)O; βAla = NCCC(=O)O

CC(=O)NCCCC[C@@H]1NC(=O)[C@H](Cc2c[nH]c3c(C)cccc23)NC(=O)[C@H]([C@@H](C)O)NC(=O)[C@H](CCC(N)=O)NC(=O)[C@@H](NC(=O)[C@@H](CCCNC(=N)N)NC(C)=O)CCSC[C@@H](C(=O)N[C@@H](Cc2ccc(OCCN)cc2)C(=O)N[C@@H](Cc2ccc3ccccc3c2)C(=O)N[C@@](C)(CCCCN)C(=O)N[C@@H](CCCCNC(C)=O)C(=O)N[C@@H](CC(N)=O)C(N)=O)NC1=O [compound 326] (Ac-[dR][Abu(4-yl)]QT[Trp(7-Me)]K(Ac)C[AEF][2Nal][αMeK]K(Ac)N-NH2; thioether 2-7) = 10 to 100 nM

Return reported IC50; argument: `CC(=O)N[C@@H]1C(=O)N[C@@H](CC(N)=O)C(=O)N[C@@H]([C@@H](C)O)C(=O)N[C@@H](Cc2c[nH]c3c(C)cccc23)C(=O)N[C@@H](CCC(N)=O)C(=O)N[C@H](C(=O)N[C@@H](Cc2ccc(OCCN)cc2)C(=O)N[C@@H](Cc2ccc3ccccc3c2)C(=O)N[C@@](C)(CCCCN)C(=O)N[C@@H](CCCNC(N)=O)C(=O)NCCC(=O)NCCC(N)=O)C(C)(C)SSC1(C)C`
1 to 10 nM

Also `CC(=O)NCCCC[C@H](NC(=O)[C@](C)(CC(C)C)NC(=O)[C@H](Cc1ccc2ccccc2c1)NC(=O)[C@H](Cc1ccc(OCCN)cc1)NC(=O)[C@H]1NC(=O)[C@H](CCC(N)=O)NC(=O)[C@H](Cc2c[nH]c3c(C)cccc23)NC(=O)[C@H]([C@@H](C)O)NC(=O)[C@H](CC(N)=O)NC(=O)[C@@H](NC(C)=O)C(C)(C)SSC1(C)C)C(=O)N[C@@](C)(CC(C)C)C(=O)NCCC(N)=O` ?
10 to 100 nM

Also `CC(=O)NCCCC[C@@H]1NC(=O)[C@H](Cc2c[nH]c3c(C)cccc23)NC(=O)[C@H]([C@@H](C)O)NC(=O)[C@H](CC(N)=O)NC(=O)[C@@H](NC(C)=O)C(C)(C)SSC(C)(C)[C@@H](C(=O)N[C@@H](Cc2ccc(OCCN)cc2)C(=O)N[C@@H](Cc2ccc3ccccc3c2)C(=O)N[C@@](C)(CCCCN)C(=O)N[C@@H](CCCCNC(C)=O)C(=O)N[C@@H](Cc2c[nH]cn2)C(=O)NCCC(N)=O)NC1=O` ?
1 to 10 nM

Also CC(=O)NCCCC[C@H](NC(=O)[C@](C)(CCCCN)NC(=O)[C@H](Cc1ccc2ccccc2c1)NC(=O)[C@H](Cc1ccc(OCCN)cc1)NC(=O)[C@H]1NC(=O)[C@H](CCCNC(N)=O)NC(=O)[C@H](Cc2c[nH]c3c(C)cccc23)NC(=O)[C@H]([C@@H](C)O)NC(=O)[C@H](CC(N)=O)NC(=O)[C@@H](NC(C)=O)C(C)(C)SSC1(C)C)C(=O)N[C@@H](CC(N)=O)C(=O)N[C@@H](CO)C(N)=O [compound 260] (Ac-[Pen]NT[Trp(7-Me)][Cit][Pen][AEF][2Nal][αMeK]K(Ac)NS-NH2; disulfide 1-6) ?
< 1 nM

Also `CC(=O)NCCCC[C@H](NC(=O)[C@](C)(CC(C)C)NC(=O)[C@H](Cc1ccc2ccccc2c1)NC(=O)[C@H](Cc1ccc(OCCN)cc1)NC(=O)[C@H]1NC(=O)[C@H](CCC(N)=O)NC(=O)[C@H](Cc2c[nH]c3c(C)cccc23)NC(=O)[C@H]([C@@H](C)O)NC(=O)[C@H](CC(N)=O)NC(=O)[C@@H](NC(C)=O)C(C)(C)SSC1(C)C)C(=O)N[C@H](C(=O)NCCC(N)=O)[C@@H](C)O` ?
1 to 10 nM

Also CC(=O)NCCCC[C@H](NC(=O)[C@](C)(CCCCN)NC(=O)[C@H](Cc1ccc2ccccc2c1)NC(=O)[C@H](Cc1ccc(OCCN)cc1)NC(=O)[C@H]1NC(=O)[C@H](CCC(N)=O)NC(=O)[C@H](Cc2c[nH]c3c(C)cccc23)NC(=O)[C@H]([C@@H](C)O)NC(=O)[C@H](CC(N)=O)NC(=O)[C@@H](NC(C)=O)C(C)(C)SSC1(C)C)C(=O)N[C@@H](CC(N)=O)C(=O)NCCC(N)=O [compound 202] ?
1 to 10 nM

Also `COc1cccc2c(C[C@@H]3NC(=O)[C@H]([C@@H](C)O)NC(=O)[C@H](CC(N)=O)NC(=O)[C@@H](NC(C)=O)C(C)(C)SSC(C)(C)[C@@H](C(=O)N[C@@H](Cc4ccc(OCCN)cc4)C(=O)N[C@@H](Cc4ccc5ccccc5c4)C(=O)N[C@@](C)(CCCCN)C(=O)N[C@@H](CCCCNC(C)=O)C(=O)N[C@@H](CC(N)=O)C(=O)N[C@H](CCCCN)C(N)=O)NC(=O)[C@H](CCCCNC(C)=O)NC3=O)c[nH]c12` ?
1 to 10 nM

Also CC(=O)N[C@@H]1C(=O)N[C@@H](CC(N)=O)C(=O)N[C@@H]([C@@H](C)O)C(=O)N[C@@H](Cc2c[nH]c3c(C)cccc23)C(=O)N[C@@H](CCCNC(N)=O)C(=O)N[C@H](C(=O)N[C@@H](Cc2ccc(OCCN)cc2)C(=O)N[C@@H](Cc2ccc3ccccc3c2)C(=O)N[C@@](C)(CCCCN)C(=O)N[C@@H](CCCNC(N)=O)C(=O)NCCC(=O)NCCC(N)=O)C(C)(C)SSC1(C)C [compound 281] (Ac-[Pen]NT[Trp(7-Me)][Cit][Pen][AEF][2Nal][αMeK][Cit][βAla][βAla]-NH2; disulfide 1-6) ?
10 to 100 nM
